Cited source for all entries: patent US20120108667A1

# System: MCF7 cells
# procedure.summary: Cell proliferation of MCF7 cells (cell counts, Trypan blue, 24 h)
# Format: cell-based, human
# conditions.used: listed as C6-ceramide, read-out: IC50, MCF7 cell growth inhibition
pIC50: −log10 of the molar value.
metric: pIC50

> print(dat)
                                   molecule  result.value
1  CCCCCCCCCCCCC/C=C/[C@@H](O)[C@H](CO)NC(=O)CCCCC [C6-Cer]          4.92
